Source of measurements: patent US10752601B2

Assay: Test Example 2 (absorption properties at time of oral administration to rat)
Type: in vivo
Conditions: male, CD (SD), plasma, po, 300 mg/kg, single oral, 300 mg/kg, mean ± SD (n = 4), read-out: Tmax
recordedMetric: Tmax (h)
Numbers only, in h.

Recorded result, O=C(c1cc(Cl)c(O)c(Cl)c1)N1CS(=O)(=O)c2ccccc21 , Tmax: 3.5

---

Test: Test Example 2 (absorption properties at time of oral administration to rat)
Format: in vivo
Settings: male, CD (SD), plasma, po, 300 mg/kg, single oral, 300 mg/kg, 2 hr, mean ± SD (n = 4), read-out: Unchanged compound level in blood plasma 2 hr
Procedure: A test substance suspended in a 0.5% solution of methylcellulose was orally administered to a male CD (SD) rat (CHARLES RIVER LABORATORIES JAPAN, INC., 7 weeks old when used) in a dose of 30 and 300 mg/kg, and blood was then collected after 0.25, 0.5, 1, 2, 4, 8, and 24 hours. The level of unchanged compound in blood plasma was measured by HPLC (Table 2, Table 3), and pharmacokinetic parameters were calculated and absorption was evaluated (Table 4).
recordedMetric: concentration at 2 hr (µg/mL)
Numbers only, in µg/mL.

Looking up O=C(c1cc(Cl)c(O)c(Cl)c1)N1CS(=O)(=O)c2ccccc21 , I found its concentration at 2 hr recorded as 264

---

Test: Test Example 2 (absorption properties at time of oral administration to rat)
Type: in vivo
Conditions: male, CD (SD), plasma, po, 300 mg/kg, single oral, 300 mg/kg, 24 hr, mean ± SD (n = 4), read-out: Unchanged compound level in blood plasma 24 hr
recordedMetric: concentration at 24 hr (ng/mL)
Numbers only, in ng/mL.

Summary for this compound, O=C(c1cc(Cl)c(O)c(Cl)c1)N1CS(=O)(=O)c2ccccc21 : concentration at 24 hr is 47200

---

Assay: Test Example 2 (absorption properties at time of oral administration to rat)
Assay type: in vivo
Conditions: male, CD (SD), plasma, po, 30 mg/kg, single oral, 30 mg/kg, 2 hr, mean ± SD (n = 4), read-out: Unchanged compound level in blood plasma 2 hr
Description: A test substance suspended in a 0.5% solution of methylcellulose was orally administered to a male CD (SD) rat (CHARLES RIVER LABORATORIES JAPAN, INC., 7 weeks old when used) in a dose of 30 and 300 mg/kg, and blood was then collected after 0.25, 0.5, 1, 2, 4, 8, and 24 hours. The level of unchanged compound in blood plasma was measured by HPLC (Table 2, Table 3), and pharmacokinetic parameters were calculated and absorption was evaluated (Table 4).
recordedMetric: concentration at 2 hr (ng/mL)
One number for each entry, in ng/mL.

The compound listed as O=C(c1cc(Cl)c(O)c(Cl)c1)N1CS(=O)(=O)c2ccccc21 [Example 1] has a reported concentration at 2 hr of 33000

---

Assay: Test Example 2 (absorption properties at time of oral administration to rat)
Assay type: in vivo
Conditions: male, CD (SD), plasma, po, 300 mg/kg, single oral, 300 mg/kg, mean ± SD (n = 4), read-out: Cmax
recordedMetric: Cmax

Cmax recorded for this compound, O=C(c1cc(Cl)c(O)c(Cl)c1)N1CS(=O)(=O)c2ccccc21 , is 316 µg/mL
